These measurements were taken from ChEMBL document CHEMBL2146478.

biological target: Protein tyrosine phosphatase type IVA 1 (Homo sapiens, UniProt Q93096)
Sequence (Q93096 whole entry): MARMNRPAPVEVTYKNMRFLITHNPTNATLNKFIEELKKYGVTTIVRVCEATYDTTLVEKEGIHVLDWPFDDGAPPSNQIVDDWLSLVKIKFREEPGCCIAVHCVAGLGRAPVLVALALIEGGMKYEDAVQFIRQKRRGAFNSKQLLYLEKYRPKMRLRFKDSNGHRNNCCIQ
Observed property: IC50

Here O=C(CSc1nnc(-c2ccco2)c(-c2ccco2)n1)Nc1ccccc1[N+](=O)[O-] was tested on Protein tyrosine phosphatase type IVA 1 (Homo sapiens, UniProt Q93096), and its IC50 came to > 100 µM

====

pIC50: −log10 of the molar value.
Reported pIC50 values, Dual specificity protein phosphatase 4 (Homo sapiens).

Some solved entries appear below for comparison.
>  <Smiles repr>
O=C(CSc1nnc(-c2ccco2)c(-c2ccco2)n1)Nc1ccccc1[N+](=O)[O-]

>  <System name>
Dual specificity protein phosphatase 4 (Homo sapiens)
Sequence (Q13115 whole entry): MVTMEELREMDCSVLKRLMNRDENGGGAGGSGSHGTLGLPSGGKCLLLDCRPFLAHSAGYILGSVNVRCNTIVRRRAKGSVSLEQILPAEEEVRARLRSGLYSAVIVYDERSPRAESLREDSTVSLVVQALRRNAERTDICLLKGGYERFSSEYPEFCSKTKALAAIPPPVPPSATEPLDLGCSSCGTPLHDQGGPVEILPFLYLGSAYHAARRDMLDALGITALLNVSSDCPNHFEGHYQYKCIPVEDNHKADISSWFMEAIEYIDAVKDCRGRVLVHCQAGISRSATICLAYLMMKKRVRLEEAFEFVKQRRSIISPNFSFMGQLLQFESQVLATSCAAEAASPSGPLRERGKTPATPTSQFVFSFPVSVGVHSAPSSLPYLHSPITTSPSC

>  <Obs value>
< 4.00

$$$$
>  <Smiles repr>
N=C1/C(=C\c2ccc(O)c(O)c2)C(=O)N=C2SC(c3ccc(O)cc3)=NN12

>  <System name>
Dual specificity protein phosphatase 4 (Homo sapiens)

>  <Obs value>
< 4.00

$$$$

pIC50 reading for O=c1/c(=C/c2ccc(O)c(O)c2)sc2nc3ccccc3n12 : < 4.00

Reported pIC50 ( CC1=CC2=NC(=O)/C(=C/c3ccc(O)c(O)c3)C(=N)N2O1 ) = 4.26

====

biological target: PTPsigma-(Brain) (Homo sapiens)
Sequence (Q9UM81 whole entry): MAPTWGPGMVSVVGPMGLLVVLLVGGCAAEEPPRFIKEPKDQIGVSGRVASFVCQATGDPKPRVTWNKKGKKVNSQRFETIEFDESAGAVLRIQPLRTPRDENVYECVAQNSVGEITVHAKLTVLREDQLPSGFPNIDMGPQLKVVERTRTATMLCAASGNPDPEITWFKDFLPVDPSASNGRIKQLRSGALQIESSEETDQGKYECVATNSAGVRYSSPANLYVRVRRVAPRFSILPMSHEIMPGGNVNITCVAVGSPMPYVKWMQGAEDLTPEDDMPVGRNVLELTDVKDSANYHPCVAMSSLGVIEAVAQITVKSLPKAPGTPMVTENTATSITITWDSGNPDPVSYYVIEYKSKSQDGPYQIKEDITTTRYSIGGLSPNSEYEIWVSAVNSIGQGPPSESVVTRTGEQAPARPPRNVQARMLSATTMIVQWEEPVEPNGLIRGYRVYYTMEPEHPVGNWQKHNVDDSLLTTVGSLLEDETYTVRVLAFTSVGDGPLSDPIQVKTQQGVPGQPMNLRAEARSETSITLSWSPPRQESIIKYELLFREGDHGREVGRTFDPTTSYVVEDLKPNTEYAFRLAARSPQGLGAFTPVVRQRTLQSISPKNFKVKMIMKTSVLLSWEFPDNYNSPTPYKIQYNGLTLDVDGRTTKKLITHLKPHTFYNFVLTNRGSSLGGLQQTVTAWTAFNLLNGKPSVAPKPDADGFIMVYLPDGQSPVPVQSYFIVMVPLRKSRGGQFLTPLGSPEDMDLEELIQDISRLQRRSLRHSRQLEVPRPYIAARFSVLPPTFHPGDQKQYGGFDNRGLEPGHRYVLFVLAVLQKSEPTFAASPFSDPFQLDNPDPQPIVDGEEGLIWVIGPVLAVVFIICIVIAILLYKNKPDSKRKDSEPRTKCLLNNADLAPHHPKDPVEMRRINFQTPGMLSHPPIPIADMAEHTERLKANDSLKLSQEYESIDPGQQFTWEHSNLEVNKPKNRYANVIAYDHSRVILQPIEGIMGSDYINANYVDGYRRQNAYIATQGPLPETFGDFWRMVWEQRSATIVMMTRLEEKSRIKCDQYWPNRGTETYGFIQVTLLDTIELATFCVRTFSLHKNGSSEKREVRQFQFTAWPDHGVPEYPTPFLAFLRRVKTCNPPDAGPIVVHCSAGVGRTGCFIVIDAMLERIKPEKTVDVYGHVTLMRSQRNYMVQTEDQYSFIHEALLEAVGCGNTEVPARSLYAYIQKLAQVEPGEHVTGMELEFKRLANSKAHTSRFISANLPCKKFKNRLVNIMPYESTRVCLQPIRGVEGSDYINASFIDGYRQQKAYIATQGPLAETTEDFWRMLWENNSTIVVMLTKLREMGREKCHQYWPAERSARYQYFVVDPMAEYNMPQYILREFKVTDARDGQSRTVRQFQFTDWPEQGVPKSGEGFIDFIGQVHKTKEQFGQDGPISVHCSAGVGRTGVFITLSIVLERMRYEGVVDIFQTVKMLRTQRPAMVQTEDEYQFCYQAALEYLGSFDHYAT
Examples of molecules with documented IC50 follow.
Just the number please, in nM, no unit attached.

>  <Smiles repr>
c1ccc2nc(-c3nnc4sc(-c5cnccn5)nn34)ccc2c1

>  <System name>
PTPsigma-(Brain) (Homo sapiens)

>  <IC50 [nM]>
100

$$$$
>  <Smiles repr>
O=C1NC(=O)/C(=C\c2cccn2-c2ccc(C(=O)O)cc2)N1

>  <System name>
PTPsigma-(Brain) (Homo sapiens)

>  <IC50 [nM]>
200

$$$$
>  <Smiles repr>
O=c1/c(=C/c2ccc(O)c(O)c2)sc2nc3ccccc3n12

>  <System name>
PTPsigma-(Brain) (Homo sapiens)

>  <IC50 [nM]>
900

$$$$

// IC50 value for O=C1NC(=S)S/C1=C\c1cn(-c2ccccc2)nc1-c1cccc(OCc2ccccc2Cl)c1 : 600
